# Target Of Assay: T1, EsCas13d, nuclease-dead (Eubacterium siraeum, UniProt B0MS50, R295A;H300A;R849A;H854A)
# T1 sequence: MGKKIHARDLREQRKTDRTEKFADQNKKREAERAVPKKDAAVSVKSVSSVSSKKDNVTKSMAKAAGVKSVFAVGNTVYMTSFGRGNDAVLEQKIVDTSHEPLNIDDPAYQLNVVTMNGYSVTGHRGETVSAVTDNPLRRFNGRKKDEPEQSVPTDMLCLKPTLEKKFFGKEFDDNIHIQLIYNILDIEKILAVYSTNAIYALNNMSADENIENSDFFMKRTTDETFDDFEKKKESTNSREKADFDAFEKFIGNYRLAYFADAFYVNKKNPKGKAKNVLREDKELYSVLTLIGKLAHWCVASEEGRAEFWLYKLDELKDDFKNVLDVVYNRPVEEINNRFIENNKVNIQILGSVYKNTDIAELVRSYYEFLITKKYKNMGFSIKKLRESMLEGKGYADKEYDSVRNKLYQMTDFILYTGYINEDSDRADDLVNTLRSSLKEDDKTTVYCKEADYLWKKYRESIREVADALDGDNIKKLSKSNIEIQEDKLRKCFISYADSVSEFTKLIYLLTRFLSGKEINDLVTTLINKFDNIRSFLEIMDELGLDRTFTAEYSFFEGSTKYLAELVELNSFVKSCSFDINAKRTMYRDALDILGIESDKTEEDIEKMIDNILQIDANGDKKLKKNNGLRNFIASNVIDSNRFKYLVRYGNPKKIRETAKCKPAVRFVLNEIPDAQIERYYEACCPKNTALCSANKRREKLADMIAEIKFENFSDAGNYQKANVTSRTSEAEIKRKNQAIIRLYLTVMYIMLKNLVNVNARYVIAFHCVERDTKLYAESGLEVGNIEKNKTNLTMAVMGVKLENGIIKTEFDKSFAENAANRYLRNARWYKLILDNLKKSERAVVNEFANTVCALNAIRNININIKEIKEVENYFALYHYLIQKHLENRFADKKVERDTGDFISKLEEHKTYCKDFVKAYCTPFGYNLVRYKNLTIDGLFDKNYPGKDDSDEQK
# Assay Remarks: crRNA (strand 1, pre-loaded); Mg2+; 40 mM Tris-HCl pH 7.5, 150 mM NaCl, 6 mM MgCl2, 1 mM DTT, 0.1% Tween-20, 0.2 mg/ml BSA; 25 C; 10 min per concentration, then washed
# Assay Conditions: tags: His6-TwinStrep-SUMO cleaved; N-terminal SNAP kept (SNAP-Surface 488); label: 3' end held by stalled T7 RNA polymerase

Binder: target 2 MT 5'PFS UAA 3'PFS AGC (mixed) RNA 1: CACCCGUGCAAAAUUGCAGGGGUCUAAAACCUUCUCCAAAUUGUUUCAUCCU RNA 2: GGGAAUGGAUCCACAUCUACGAAUUCUAAAGGAUGAAACAAUUUGGAGAAGAGCAGAUCGGAAGAGCACACGU
Kd (nM): 3.2
--
Binder: target 1 insA 3' of 15,insA 3' of 12 (mixed) RNA 1: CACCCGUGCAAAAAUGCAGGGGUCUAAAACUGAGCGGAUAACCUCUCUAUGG RNA 2: GGGAAUGGAUCCACAUCUACGAAUUCGUACCAUAGAGAAGGAUUAUCCGCUCACCGAGAUCGGAAGAGCACACGU
Kd (nM): 42
--
Binder: target 2 MT 5'PFS UGU 3'PFS AAC (mixed) RNA 1: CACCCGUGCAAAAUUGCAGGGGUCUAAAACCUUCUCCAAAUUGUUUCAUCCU RNA 2: GGGAAUGGAUCCACAUCUACGAAUUCUGUAGGAUGAAACAAUUUGGAGAAGAACAGAUCGGAAGAGCACACGU
Kd (nM): 24
--
Binder: target 2 MT 5'PFS UAU 3'PFS UGC (mixed) RNA 1: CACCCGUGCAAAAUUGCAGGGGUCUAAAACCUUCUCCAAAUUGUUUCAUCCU RNA 2: GGGAAUGGAUCCACAUCUACGAAUUCUAUAGGAUGAAACAAUUUGGAGAAGUGCAGAUCGGAAGAGCACACGU
Kd (nM): 30
